Numbers sourced from patent US20240309103A1.

- target system: T1, mouse NPR1 extracellular domain expressed with a C-terminal mouse IgG2a (mNPR1-mFc) (mouse)
- T1 chain: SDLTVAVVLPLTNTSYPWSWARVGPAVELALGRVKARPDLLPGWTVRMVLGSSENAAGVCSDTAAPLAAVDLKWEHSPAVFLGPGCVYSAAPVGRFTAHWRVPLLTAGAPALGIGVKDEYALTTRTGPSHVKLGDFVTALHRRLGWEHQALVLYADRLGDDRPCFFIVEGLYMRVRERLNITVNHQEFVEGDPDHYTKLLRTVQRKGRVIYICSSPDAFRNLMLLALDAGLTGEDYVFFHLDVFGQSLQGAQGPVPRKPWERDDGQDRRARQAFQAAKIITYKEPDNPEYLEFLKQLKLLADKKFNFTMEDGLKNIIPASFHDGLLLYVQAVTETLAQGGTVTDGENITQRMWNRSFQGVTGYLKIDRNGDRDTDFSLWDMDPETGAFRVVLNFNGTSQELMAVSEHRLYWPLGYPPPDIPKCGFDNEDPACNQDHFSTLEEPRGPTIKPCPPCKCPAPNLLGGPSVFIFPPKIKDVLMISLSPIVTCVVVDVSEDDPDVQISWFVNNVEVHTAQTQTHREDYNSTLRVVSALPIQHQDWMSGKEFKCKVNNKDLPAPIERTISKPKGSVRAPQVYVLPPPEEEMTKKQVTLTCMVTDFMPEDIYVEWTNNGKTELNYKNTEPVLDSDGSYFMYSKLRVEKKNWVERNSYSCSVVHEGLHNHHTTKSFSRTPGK
- protocol text: SPR, Tables 21 to 26
recorded endpoint: binding result

mAb22805 (antibody, V domains shown) VH: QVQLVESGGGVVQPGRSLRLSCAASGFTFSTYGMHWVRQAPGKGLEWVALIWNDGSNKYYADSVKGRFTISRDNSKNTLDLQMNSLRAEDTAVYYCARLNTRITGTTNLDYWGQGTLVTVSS VL: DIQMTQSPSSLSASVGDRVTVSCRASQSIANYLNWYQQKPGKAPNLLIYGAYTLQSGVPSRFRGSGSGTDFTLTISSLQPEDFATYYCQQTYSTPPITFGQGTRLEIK :: no binding
mAb22033 (antibody, V domains shown) VH: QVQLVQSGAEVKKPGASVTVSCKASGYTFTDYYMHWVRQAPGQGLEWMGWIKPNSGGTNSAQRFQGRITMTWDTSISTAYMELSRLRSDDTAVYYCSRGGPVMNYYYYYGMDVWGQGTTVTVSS VL: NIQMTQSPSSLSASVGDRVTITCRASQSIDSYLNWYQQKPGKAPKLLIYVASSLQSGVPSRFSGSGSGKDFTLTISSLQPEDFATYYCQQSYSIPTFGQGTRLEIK :: no binding
mAb22809 (antibody, V domains shown) VH: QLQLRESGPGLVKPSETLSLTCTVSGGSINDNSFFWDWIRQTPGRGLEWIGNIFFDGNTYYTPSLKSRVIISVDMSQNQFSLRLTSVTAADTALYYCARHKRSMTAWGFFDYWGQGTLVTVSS VL: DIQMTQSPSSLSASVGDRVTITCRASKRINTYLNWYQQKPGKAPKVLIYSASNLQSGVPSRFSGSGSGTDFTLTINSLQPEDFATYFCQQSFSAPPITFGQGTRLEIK :: no binding
